biological target: Alkaline phosphatase, placental type (Homo sapiens); assay: activation of human placental alkaline phosphatase – biochemical, luminescence, HTS (AID 696); conditions: purified PLAP enzyme, luminescent substrate read-out; at 20 µM
In all, about 96,000 compounds went through this assay and about 1,200 (1.2%) were called active. No stated cut-off is given here; in the data, active means activation fold above about 2; inactive means the rest. Only a selection was taken, and actives are over-represented in it overall.
Outcomes: y (active), n (inactive)

                                   molecule                            assayed_target  answer_label
0  COc1cc(Cn2c(N)c(C(=O)NCc3ccco3)c3nc4ccccc4nc32)cc(OC)c1OC  Alkaline phosphatase, placental type (Homo sapiens)             y
1  CCOC(=O)c1c(N)n(Cc2ccccc2)c2nc3ccccc3nc12  Alkaline phosphatase, placental type (Homo sapiens)             n
2  CCOc1ccc(C2SCC(=O)Nc3c2c(C)nn3C2CCOC(C)(C)C2)cc1 (centres undefined)  Alkaline phosphatase, placental type (Homo sapiens)             n
3  CCOC(=O)c1c(N)n(CCN2CCOCC2)c2nc3ccccc3nc12  Alkaline phosphatase, placental type (Homo sapiens)             n
